measuredTarget: SARS-CoV-2 Papain-Like Protease (PLpro) (Severe acute respiratory syndrome coronavirus 2 (2019-nCoV) (SARS-CoV-2))
experimentalDetails: biochemical
reportedConditions: SARS-CoV-2 PLpro enzymatic fluorescence assay; read-out: PLpro IC50
pIC50: −log10 of the molar value.
Hi there, I'd appreciate the recorded pIC50 for every entry that follows.

Task: Please give the measured pIC50 for this molecule: Cc1ccc(N)cc1C(=O)NC(c1cccc2ccccc12)C(F)F (centres unmarked)
Result: 5.30 to 6.00

Task: Field entry: C#CC(NC(=O)c1cc(N)ccc1C)c1cccc2ccccc12 (centres unmarked)
Result: < 5.30

Task: Please give the result for `Cc1ccc(OCCN2CCCCC2)cc1C(=O)NC1(c2cccc3ccccc23)CC1` too.
Result: > 7.00

Task: Repeat for the following molecule: `Cc1cc2cc(-c3ccccn3)[nH]c2cc1C(=O)NC1(c2cccc3ccccc23)CC1`
Result: 6.00 to 7.00

Task: And what about the molecule `Cc1ccc(N2CCN(CCO)CC2)cc1C(=O)NC1(c2cccc3ccccc23)CC1` ?
Result: > 7.00

Task: Try the molecule `Cc1cc2c(cc1C(=O)NC1(c3cccc4ccccc34)CC1)NC(=O)C2`
Result: 6.00 to 7.00

Task: Now consider `COc1cc(C2(NC(=O)c3cc(OC[C@@H]4CCN4)ccc3C)CC2)c2cccnc2c1` and answer again.
Result: > 7.00

Task: Here is the next molecule: `C[C@H](c1cccc2ccccc12)N1C[C@@H]2[C@H](C1)[C@H]2C(=O)NCc1cccc(F)c1`
Result: < 5.30

Task: Follow-up item: Cc1ccc(OC[C@H]2C[C@H](F)CN2)cc1C(=O)NC1(c2cccc3ccccc23)CC1 (single isomer, unassigned)
Result: > 7.00

Task: Next molecule: `Cc1cc2cc(CN(C)C)n(CO)c2cc1C(=O)N[C@H](C)c1cccc2ccccc12`
Result: 6.00 to 7.00

Task: Thanks! And `Cc1ccc(NS(C)(=O)=O)cc1C(=O)N[C@H](C)c1cccc2ccccc12` ?
Result: < 5.30

Task: Also, `Cc1ccc(OCCNc2ccccc2)cc1C(=O)NC1(c2cccc3ccccc23)CC1` please.
Result: 5.30 to 6.00

Task: Next: `CNCCOc1ccc(C)c(C(=O)NC2(c3cc(OC)cc4ncccc34)CC2)c1`
Result: > 7.00

Task: Same question, CC(=O)N(c1ccc(C)c(C(=O)N[C@H](C)c2cccc3ccccc23)c1)C(CN)CO (some centres unmarked) this time
Result: < 5.30

Task: // next record `Cc1ccc(OCCN(C)C)cc1C(=O)NC1(c2ccccc2-c2ccncc2)CC1`
Result: < 5.30

Task: Let us now turn to `Cc1ccc(OCCN(C)C)cc1NC(=O)C1(c2cccc3ccccc23)CC1`
Result: < 5.30

Task: Same thing, different molecule: Cc1ccc(OCC(N)C(C)(C)C)cc1C(=O)NC1(c2cccc3ccccc23)CC1 (centres unmarked)
Result: > 7.00

----------
measuredTarget: SARS-CoV-2 Papain-Like Protease (PLpro) (Severe acute respiratory syndrome coronavirus 2 (2019-nCoV) (SARS-CoV-2), UniProt P0DTD1)
experimentalDetails: biochemical
reportedConditions: SARS-CoV-2 PLpro enzymatic fluorescence assay; read-out: PLpro IC50
measureName: IC50

Task: Recorded IC50 of `Cc1ccc(N)cc1C(=O)NC1(c2cccc3ccccc23)CCC1` , please.
Result: > 5000 nM

Task: What do you have for `Cc1cc(C#Cc2ccccc2)c(N)cc1C(=O)NC1(c2cccc3ccccc23)CC1` ?
Result: > 5000 nM

Task: // same read-out, input: Cc1ccc(OCC(C)N)cc1C(=O)NC1(c2cc(-c3ccccc3)cc3ccccc23)CC1 (centres unmarked)
Result: < 100 nM

Task: Now try Cc1ccc(OCC2CCN2C)cc1C(=O)NC1(c2cc(-c3ccccc3)cc3ccccc23)CC1 (centres unmarked) .
Result: < 100 nM

Task: // repeat for Cc1ccc(OC[C@H]2C[C@@H](O)CN2)cc1C(=O)NC1(c2cccc3ccccc23)CC1 (racemic) and report
Result: < 100 nM

Task: Let us now turn to Cc1ccc(OCC2CCN2)cc1C(=O)NC1(c2cccc3ccccc23)CC1 (centres unmarked)
Result: < 100 nM

Task: Another: `Cc1ccc(Nc2cn[nH]c2)cc1C(=O)N[C@H](C)c1cccc(-c2ccc(CN[C@H]3CC[C@@H](O)C3)s2)c1`
Result: 1000 to 5000 nM

Task: What do you have for `Cc1ccc(OCCN(C)C)cc1C(=O)NC1(c2cccc3occc23)CC1` ?
Result: 100 to 1000 nM

----------
Would you kindly list pIC50 for each of these molecules?
measuredTarget: SARS-CoV-2 Papain-Like Protease (PLpro) (Severe acute respiratory syndrome coronavirus 2 (2019-nCoV) (SARS-CoV-2), UniProt P0DTD1)
experimentalDetails: biochemical
reportedConditions: PLpro enzymatic fluorescence assay; class symbols; read-out: PLpro IC50
pIC50: −log10 of the molar value.

Task: Can you share its pIC50? I mean this molecule: COc1cc(C2(NC(=O)c3cc(OC[C@H]4CC5(CC5)CN4C)ccc3C)CC2)c2cccnc2c1 [Compound 774]
Result: > 7.00

Task: Next: Cc1ccc(OCC2CCN2C)cc1C(=O)NC1(c2c(C)ccc3ccccc23)CC1 (stereo not drawn) [Compound 458]
Result: > 7.00

Task: Again, but for COc1cc(C2(NC(=O)c3cc(OC[C@@]45CCCN4C[C@H](F)C5)ccc3C)CC2)c2cccnc2c1 [Compound 596]
Result: > 7.00

Task: Same read-out for COc1cc(C2(NC(=O)c3cc(OC[C@@H](C)N)ccc3C)CC2)c2ccncc2c1 [Compound 537] ?
Result: > 7.00

Task: Next record, please: C=Cc1cc(C2(NC(=O)c3cc(OC[C@@H]4CCN4C)c(NS(C)(=O)=O)cc3C)CC2)c2cccnc2c1 [Compound 760]
Result: > 7.00

Task: // same read-out, input: COc1cc(C2(NC(=O)c3cc(OC[C@H]4C[C@H](F)CN4C)ccc3C)CC2)c2ccccc2c1 [Compound 531]
Result: > 7.00

Task: What do you have for Cc1ccc(OC[C@@H]2CCN2C)cc1C(=O)NC1(c2cc(-c3ncn4ccccc34)cc3ncccc23)CC1 [Compound 736] ?
Result: > 7.00

Task: And C=Cc1cc(C2(NC(=O)c3cc(OC[C@@H]4CCCN4C)ccc3C)CC2)c2cccnc2c1 [Compound 717] ?
Result: > 7.00

Task: What do we get for Cc1ccc(OC[C@@H]2CCN2C)cc1C(=O)NC1(c2cc(-c3cnn(C)c3)cc3ncccc23)CC1 [Compound 670] ?
Result: > 7.00

Task: Also check Cc1ccc(NC2CN(C(=O)OC(C)(C)C)C2)cc1C(=O)NC1(c2cccc(-c3ccccc3)c2)CC1 [Compound 188]
Result: < 5.30

Task: Repeat with Cc1ccc(OC[C@@H]2CCN2C)cc1C(=O)NC1(c2cc(/C=C/C3CC3)cc3ncccc23)CC1 [Compound 684]
Result: > 7.00

Task: Another molecule to look at: Cc1ccc(OC[C@@H]2CCN2C)cc1C(=O)NC1(c2cc(C#N)cc3ncccc23)CC1 [Compound 738]
Result: > 7.00

Task: Another: Cc1ccc([N+](=O)[O-])cc1CNC(c1cccc2ccccc12)C1COC1 (stereo not drawn) [Compound 110]
Result: < 5.30

Task: Next up: Cc1ccc(OCC2CCN2C)cc1C(=O)NC1(c2c3ccccc3cc3ccccc23)CC1 (stereo not drawn) [Compound 507]
Result: 6.00 to 7.00

Task: Now consider Cc1ccc(OC[C@@H]2CCN2C)cc1C(=O)NC1(c2cc(-c3ccc(CNC4CCCC4)s3)cc3ncccc23)CC1 [Compound 752] .
Result: > 7.00

----------
So I've got a bunch of compounds here, and I need their IC50 values.
measuredTarget: SARS-CoV-2 Papain-Like Protease (PLpro) (Severe acute respiratory syndrome coronavirus 2 (2019-nCoV) (SARS-CoV-2))
experimentalDetails: biochemical
reportedConditions: SARS-CoV-2 PLpro enzymatic fluorescence assay; read-out: PLpro IC50

Task: Tell me the measured IC50 of `Cc1cccc(C2(NC(=O)c3cc(OCCN(C)C)ccc3C)CC2)c1` , please.
Result: > 5000 nM

Task: Quick one: `C#Cc1ccc(OCCN(C)C)cc1C(=O)NC1(c2cccc3ccccc23)CC1`
Result: > 5000 nM

Task: Query `C=Cc1cc(C2(NC(=O)c3cc(OC[C@@H]4CCN4C)c(N)cc3C)CC2)c2cccnc2c1` next
Result: < 100 nM

Task: Similarly, `Cc1cc2cc(CNC(=O)OC(C)(C)C)[nH]c2cc1C(=O)NC1(c2cccc3ccccc23)CC1` ?
Result: 100 to 1000 nM

Task: Lookup `Cc1ccc(OCCN(C)C)cc1C(=O)NC1(c2ccccc2F)CC1`
Result: > 5000 nM

Task: Moving on to `Cc1ccc(OCCN(C)C)cc1C(=O)NC1(c2cccc(-c3ccccc3)c2)CC1`
Result: 100 to 1000 nM

Task: Could you do the same for Cc1ccc(OCC2CCN2C)cc1C(=O)NC1(c2cc(Br)cc3ccccc23)CC1 (stereo not drawn) , please?
Result: < 100 nM

Task: What do you get for `Cc1ccc(NC2CNC2)cc1C(=O)NC1(c2cccc(-c3ccc(CN4CCCC4)s3)c2)CC1` ?
Result: 100 to 1000 nM

Task: Okay, and `COc1cc(C2(NC(=O)c3cc(OC[C@@H]4CCCN4)ccc3C)CC2)c2ccccc2c1` ?
Result: < 100 nM

Task: And what about the compound Cc1cc2cc(CN)oc2cc1C(=O)NC1(c2cccc3ccccc23)CC1 [Compound 236] ?
Result: 100 to 1000 nM

Task: Again, but for `C=C(C)c1cc(C2(NC(=O)c3cc(OC[C@@H]4CCN4C)ccc3C)CC2)c2cccnc2c1`
Result: < 100 nM

Task: Please give the result for `Cc1ccc(OC[C@@H]2CCN2C)cc1C(=O)NC1(c2cc(OCc3ccccc3)cc3ncccc23)CC1` too.
Result: < 100 nM

Task: Query `Cc1cc2nc(CN)[nH]c2cc1C(=O)N[C@H](C)c1cccc(-c2ccc(CN[C@H]3CC[C@@H](O)C3)s2)c1` next
Result: 100 to 1000 nM

Task: Again, but for `Cc1cc2c3c([nH]c2cc1C(=O)NC1(c2cccc4ccccc24)CC1)C(=O)CC3`
Result: 1000 to 5000 nM

Task: Request: `Cc1cc2ccn(C)c2cc1C(=O)N(C)C1(c2cccc3ccccc23)CC1`
Result: > 5000 nM

Task: // query: Cc1ccc(N)cc1C(=O)NC(CF)c1cccc2ccccc12 (stereo not drawn)
Result: 1000 to 5000 nM

Task: Could you do the same for `Cc1cc2cc[nH]c2cc1C(=O)NC1(c2cccc3ccccc23)CC1` , please?
Result: 100 to 1000 nM

Task: Follow-up item: `Cc1cc2cc(CN)[nH]c2cc1C(=O)NC1(c2ccccc2)CC1`
Result: > 5000 nM

Task: Entry to check: `Cc1cnc(OCCN(C)C)nc1C(=O)NC1(c2cccc3ccccc23)CC1`
Result: 1000 to 5000 nM

Task: Please do the same for `Cc1ccc(OCCN2CC(F)C2)cc1C(=O)NC1(c2cccc3ccccc23)CC1` as well.
Result: < 100 nM

Task: Now give it for `Cc1ccc(OCCN(C)C)cc1C(=O)NC1(c2cccc3ccncc23)CC1` too.
Result: 100 to 1000 nM

Task: Consider next the compound `Cc1ccc(OCCN(C)C)cc1C(=O)NC1(c2ccccc2Br)CC1` in the same way.
Result: 100 to 1000 nM

Task: Same again, this time with `Cc1ccc(OCCN(C)C)cc1C(=O)NC1(c2cccc(Oc3ccccc3)c2)CC1`
Result: > 5000 nM

Task: Also Cc1ccc(OCC(N)Cc2ccccc2)cc1C(=O)NC1(c2cccc3ccccc23)CC1 (stereo not drawn) , if possible.
Result: < 100 nM

Task: Query Cc1ccc(N)cc1C(=O)NC(c1cccc2ccccc12)C(F)(F)F (stereo not drawn) next
Result: 1000 to 5000 nM

Task: And `Cc1cc2cc(CCN)[nH]c2cc1C(=O)NC1(c2cccc3ccccc23)CC1` ?
Result: 100 to 1000 nM

Task: Next compound up: `Cc1ccc(OCCN(C)C)cc1C(=O)NC1(c2cccc3ccc(F)cc23)CC1`
Result: < 100 nM

Task: What would you report for `C[C@@H](NC(=O)c1ccc2cn[nH]c2c1)c1cccc2ccccc12` ?
Result: > 5000 nM

Task: And the next one, Cc1ccc(N)cc1NC(=O)C(C)c1cccc2ccccc12 (stereo not drawn) ?
Result: > 5000 nM

Task: Then what about the compound `Cc1cc2cn[nH]c2cc1C(=O)N[C@H](C)c1cccc2ccccc12` ?
Result: 100 to 1000 nM

Task: What do you have for `Cc1ccc(OC[C@@H]2CCN2C)cc1C(=O)NC1(c2cc(C(F)(F)F)cc3ncccc23)CC1` ?
Result: < 100 nM

Task: Further, for `Cc1ccc(OC[C@@H]2CCN2C)cc1C(=O)NC1(c2cccc3cc(F)ccc23)CC1` ?
Result: < 100 nM

Task: Cool, now `Cc1ccc(Nc2cnn(C)c2)cc1C(=O)N[C@H](C)c1cccc(-c2ccc(CN[C@H]3CC[C@@H](O)C3)s2)c1`
Result: 1000 to 5000 nM

Taken from patent US20250025443A1.
